Test system: RD-ES
TEST PROTOCOL: relative viability vs DMSO control (72 h) (fraction); higher = more viable cells
CONDITION SUMMARY: 0.00457 µM
The entries below come with measured relative viability values attached.
Please give the numeric answer without any surrounding text.

Sample records with relative viability:
ITEM SMILES	relative viability
CCN(c1cc(-c2ccc(CN3CCOCC3)cc2)cc(C(=O)NCc2c(C)cc(C)[nH]c2=O)c1C)C1CCOCC1	0.965
CO[C@@H]1[C@H](N(C)C(=O)c2ccccc2)C[C@H]2O[C@]1(C)n1c3ccccc3c3c4c(c5c6ccccc6n2c5c31)C(=O)NC4	0.938
CN(C)C[C@@H]1CCn2cc(c3ccccc32)C2=C(C(=O)NC2=O)c2cn(c3ccccc23)CCO1	0.988

Now consider a different compound.
# relative viability of `C[C@@H]1COC(Nc2ccc3ncnc(Nc4ccc(OCc5nccs5)c(Cl)c4)c3c2)=N1` = 0.985
